# STUDY_SYSTEM: pooled human IgG (human); further: test concentration or dose not given here
# PROTOCOL_DETAILS: cell-based or functional assay
RECORDED_ENDPOINT: Enzyme Activity Endpoint Assay (purified): Fc (ng/µL)
Value expressed in ng/µL; do not type the unit.

Input: Reported Enzyme Activity Endpoint Assay (purified): Fc, binder PRT-194 (enzyme) MANQEIRYSEVTPYHVTSVWTKGVTPPDHDFANFTQGEDVFHAPYVANQGWYDITKTFNGKDDLLCGAATAGNMLHWWFDQNKDQIKRYLEEHPEKQKINFNGEQMFDVKEAIDTKNHQLDSKLFEYFKEKAFPYLSTKHLGVFPDHVIDMFINGYRLSLTNHGPTPVKEGSKDPRGGIFDAVFTRGDQSKLLTSRHDFKEKNLKEISDLIKKELTEGKALGLSHTYANVRHSINHVINLWGADFDSNGNLKAIYVTDSDDKKLTISNASIGMKKYFVGVNSAGKVAISAKEIKEDNIGAQVLGLFTLSTGQDSWNQTN : ____
Output: 12
